Data origin: FireProtDB (doi:10.1093/protein/15.6.455)

B1: Cytochrome c-551, P00099 (parent)
chain: MKPYALLSLLATGTLLAQGAWAEDPEVLFKNKGCVACHAIDTKMVGPAYKDVAAKFAGQAGAEAELAQRIKNGSQGVWGPIPMPPNAVSDDEAQTLAKWVLSQK

# Variants of: B1
# Assay context: Pseudomonas aeruginosa (strain ATCC 15692 / DSM 22644 / CIP 104116 / JCM 14847 / LMG 12228 / 1C / PRS 101 / PAO1); pH 3.6; Thermal; DSC; sodium acetate 50 mM; reversible: yes; structure 451C; whole UniProt chain shown
Please enter yes where change of melting temperature, mutant - wild type (higher = more stable) is greater than or equal to 10 °C, and no where it is lower.

Solved entries (count: 3):
Variant annotation	Assigned class
F56Y E65Y V100I	yes
F29A V35M F56Y E65Y	yes
F56Y E65Y	no

Is change of melting temperature, mutant - wild type (higher = more stable) for F29A V35M F56Y E65Y V100I at or above 10 °C? yes
